test system: Fibroblast; assay: Multiplex assay against human fibroblast; type: toxicity, cell-based; conditions: 12 h, 1 µM, compound concentration 1 uM, replicate 2
Each entry gets criterion not met if its Population Mitochondria Different-Phenotype (%) stays under 10%, and criterion met if its Population Mitochondria Different-Phenotype (%) is 10% or above.

Observe how each entry below is paired with its result.
- COMPOUND: "O=C1NC(=O)C(c2cnc3ccccn23)=C1c1cn2c3c(cc(F)cc13)CN(C(=O)N1CCCCC1)CC2 [LY-2090314]"
  QUALITATIVE LABEL: "criterion met"
- COMPOUND: "CN1CCC(=C2c3ccccc3CC(=O)c3sccc32)CC1.O=C(O)/C=C/C(=O)O [KETOTIFEN FUMARATE]"
  QUALITATIVE LABEL: "criterion met"
- COMPOUND: "O=C(Nc1cccnn1)N1CCC(=Cc2cccc(Oc3ccc(C(F)(F)F)cn3)c2)CC1"
  QUALITATIVE LABEL: "criterion not met"

Now for another entry.
Confirm if Population Mitochondria Different-Phenotype (%) reported for the compound NC(=O)c1cccc(-c2cc(Nc3ccc(OC(F)(F)F)cc3)ncn2)c1 is 10% or above.
criterion met
